target: UniProt P49841; test: radiometric filter-binding kinase assay; conditions: compound 1.0 µM
Sequence (P49841 whole entry, looked up): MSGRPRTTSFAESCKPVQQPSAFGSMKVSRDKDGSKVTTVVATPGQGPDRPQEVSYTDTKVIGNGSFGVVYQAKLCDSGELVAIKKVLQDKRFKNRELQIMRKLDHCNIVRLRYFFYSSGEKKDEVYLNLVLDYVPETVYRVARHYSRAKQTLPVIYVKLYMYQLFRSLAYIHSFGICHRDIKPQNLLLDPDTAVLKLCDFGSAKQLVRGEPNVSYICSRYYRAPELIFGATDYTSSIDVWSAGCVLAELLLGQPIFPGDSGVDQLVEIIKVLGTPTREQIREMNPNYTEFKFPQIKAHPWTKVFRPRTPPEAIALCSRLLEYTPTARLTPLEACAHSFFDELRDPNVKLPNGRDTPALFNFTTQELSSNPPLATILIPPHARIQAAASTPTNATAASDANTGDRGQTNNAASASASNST
residual activity under 80% gets fulfilled, anything at or over 80% gets not fulfilled.

[[record]]
molecule = "O=C(O)c1cc(N=Nc2ccc(S(=O)(=O)Nc3ccccn3)cc2)ccc1O"
labelvalue = "not fulfilled"

[[record]]
molecule = "COc1ccc(-n2ncc3cnc(Nc4cc(OC)c(OC)c(OCCCN5CCN(C)CC5)c4)nc32)cc1"
labelvalue = "fulfilled"

[[record]]
molecule = "CNC(=O)C1[C@H]2O[C@@](C)([C@@H]1N)n1c3ccccc3c3c4c(c5c6ccccc6n2c5c31)C(=O)NC4 (stereo partly drawn)"
labelvalue = "fulfilled"


Ask: Item COc1ccc(N(C(=O)Nc2c(C)cccc2C)c2cc(Nc3ccc(N4CCN(C)CC4)cc3)ncn2)c(OC)c1 : residual activity beneath 80%, strictly?
Reply: not fulfilled

Ask: Same read-out for CCNc1nc(Nc2cc(F)c(C(=O)N3CCOCC3)cc2OC)ncc1C(F)(F)F ?
Reply: not fulfilled

Ask: Same read-out for CNc1nc(-c2ccc3c(N)n[nH]c3c2)cc(N2C[C@@H](C(=O)NC3CCCCC3)CC[C@H]2C)n1 ?
Reply: not fulfilled

Ask: Same read-out for CCCCCc1ccc(/C=C/[C@H](O)[C@@H](CO)NC)cc1 ?
Reply: not fulfilled

Ask: Same read-out for O=C(Nc1cccnc1)c1cc(-c2ccnc(F)c2)ccc1OCc1ccccc1 ?
Reply: not fulfilled

Ask: Same read-out for CCc1cncnc1N1CCN(Cc2nc3cc(C(F)(F)F)ccc3[nH]2)CC1 ?
Reply: not fulfilled

Ask: Same read-out for Cn1nc(Nc2ccc(F)cc2)c2c(N)ncnc21 ?
Reply: not fulfilled
